- Tested on: NCI-H460 lung
- assay_text: NCI-60 one-dose screen, 48 h
- condition_parameters: 10 µM unless noted
Compounds without any hit were thinned out: in the full panel of roughly 83,000, 20% have a hit. Active and inactive are the calls of the source. Rule for the calls: active = growth percent below 10; inactive = the rest.
Give one outcome, nothing more. List: t for active, f for inactive

[[record]]
compound = "CCOC(=O)C1=C(C)NC(SCc2nnc(-c3ccc(Cl)cc3)o2)=NC1c1ccc(Br)cc1 (stereo not drawn)"
assay_system = "NCI-H460 lung"
classification = "f"

[[record]]
compound = "CN1CCN(Cc2ccc(NC(=O)c3cncc(C#Cc4cnc5cccnn45)c3)cc2C(F)(F)F)CC1"
assay_system = "NCI-H460 lung"
classification = "t"

[[record]]
compound = "CC(=O)O[C@H]1[C@H](CC#CC#CC[C@@H]2C[C@]3(C)[C@H]4CC=C5[C@H]6[C@@H](C)[C@H](C)CC[C@]6(C(=O)NCCCCCCCCN)CC[C@@]5(C)[C@]4(C)CC[C@H]3C(C)(C)[C@H]2OC(C)=O)C[C@]2(C)[C@H]3CC=C4[C@H]5[C@@H](C)[C@H](C)CC[C@]5(C(=O)NCCCCCCCCN)CC[C@@]4(C)[C@]3(C)CC[C@H]2C1(C)C"
assay_system = "NCI-H460 lung"
classification = "f"

[[record]]
compound = "O=c1[nH]c2ccccc2n2cc3cccnc3c12"
assay_system = "NCI-H460 lung"
classification = "f"

[[record]]
compound = "COc1ccc(NC(=O)C2c3ccccc3C(=O)N(CC(C)C)C2c2cccs2)cc1 (stereo not drawn)"
assay_system = "NCI-H460 lung"
classification = "f"

[[record]]
compound = "COc1cc(NCCCCC(C)N)c2nccc(C)c2c1 (stereo not drawn)"
assay_system = "NCI-H460 lung"
classification = "f"


Input: So what was the verdict on N=c1n(Cc2ccccc2)c(N)cc(=O)n1Cc1ccccc1 in this test?
Output: t

Input: So what was the verdict on N#Cc1nc(-c2ccc(Cl)cc2)cc(-c2ccc(Nc3nc(N4CCCCC4)nc(N4CCCCC4)n3)cc2)c1N in this test?
Output: f

###

- Test system: NCI-H23 lung
- assay_text: NCI-60 one-dose screen, 48 h
- condition_parameters: 10 µM unless noted
This is part of a sample that, as a whole, favours compounds with a hit. Of some 83,000 tested, about 20% had one in any assay. Activity calls are given as the source filed them. The calls were made as follows: active = growth percent below 10; inactive = the rest.
Give one outcome, nothing more. List: 1 (yes) (active), 0 (no) (inactive)

// known answers, use as guide
[[record]]
compound = "[Ag].[Ag].[NH-]S(=O)(=O)c1ccc(N=Nc2cc(N=Nc3ccc(S([NH-])(=O)=O)cc3)c3c(NC(=O)C(Cl)Cl)cccc3c2OC(=O)C(Cl)Cl)cc1.[c-]1nccs1.[c-]1nccs1"
classification = "0 (no)"

[[record]]
compound = "CN(C)c1ccc(Nc2c3ccccc3nc3ccccc23)cc1"
classification = "0 (no)"


Input: So what was the verdict on c1ccc(C(Nc2ccccn2)(c2ccccc2)c2ccccc2)cc1 in this test?
Output: 0 (no)

Input: So what was the verdict on CCn1c(CN2CCN(Cc3ccccc3)CC2)nc2cc(NC(=O)c3cccs3)ccc21 in this test?
Output: 1 (yes)

Input: So what was the verdict on CCN(CC)CCCC(C)Nc1cnc(C(=O)Nc2ccc(Cl)c3cccnc23)cn1 (centres undefined) in this test?
Output: 0 (no)

Input: So what was the verdict on CC1(C)CC[C@]2(C(=O)N3CCNCC3)CC[C@]3(C)C(=CC[C@@H]4[C@@]5(C)CCC(=O)C(C)(C)[C@@H]5CC[C@]43C)[C@@H]2C1 in this test?
Output: 0 (no)

Input: So what was the verdict on Nc1c(C(=O)c2ccc(Br)cc2)sc2nc3c(cc12)CCCC3 in this test?
Output: 0 (no)

Input: So what was the verdict on CC(=O)OC1Oc2cc(C)c(C)cc2-c2oc(=O)c(-c3ccc(F)cc3)cc21 (centres undefined) in this test?
Output: 0 (no)

Input: So what was the verdict on Cc1ccc2cc3c(NC(=O)c4cccnc4)nn(C)c3nc2c1 in this test?
Output: 0 (no)
